Measurement Protocol: method code SF, from Hansch, C. & Leo, A. (1987). Log P database [Dataset]. Pomona College Medicinal Chemistry Project.
Condition Context: pH 7.5
Quantity Name: logD
// response body must contain only the number

Query :: Find the recorded logD belonging to O=C[C@H](O)[C@@H](O)[C@H](O)[C@H](O)CO and report it.
Result :: -1.88

Query :: Find the recorded logD belonging to CC1OC(C)OC(C)O1 (configuration not stated) and report it.
Result :: 0.67

* * *

Hi there, I'd appreciate the recorded logP for every entry that follows.
Measurement Protocol: method code SF, from Hansch, C. & Leo, A. (1987). Log P database [Dataset]. Pomona College Medicinal Chemistry Project.
// response body must contain only the number

Query :: Find the recorded logP belonging to COc1cccc2cccnc12 and report it.
Result :: 1.84

Query :: Find the recorded logP belonging to O=S(=O)(NO)c1ccccc1 and report it.
Result :: 0.48

Query :: Find the recorded logP belonging to CC1CCCCC1(C)NC(=O)N(CCCl)N=O (stereo not drawn) and report it.
Result :: 2.57

Query :: Find the recorded logP belonging to CC(=O)C(F)(F)F and report it.
Result :: 0.2

Query :: Find the recorded logP belonging to C=CCc1ccccc1 and report it.
Result :: 3.23

Query :: Find the recorded logP belonging to CNC(N)=NC#N and report it.
Result :: -0.77

Query :: Find the recorded logP belonging to CC1CO1 (stereo not drawn) and report it.
Result :: 0.03

Query :: Find the recorded logP belonging to COC[C@H]1O[C@@H](O)[C@H](NC(=O)N(CCCl)N=O)[C@@H](OC)[C@@H]1OC and report it.
Result :: 0.8

* * *

Measurement Protocol: method code SF, from Hansch, C. & Leo, A. (1987). Log P database [Dataset]. Pomona College Medicinal Chemistry Project.
Dear colleague, classification is by logP, with ranges listed here: low value (below 1), medium value (1 to below 2), high value (2 or more)

Query :: Kindly identify the class of CCN(CC)c1ccc(CO)cc1 .
Result :: high value

Query :: Kindly identify the class of Cc1ccc(CO)cc1 .
Result :: medium value

Query :: Kindly identify the class of CCCCOc1cccc(C=C(C(C)=O)C(=O)OCC)c1 .
Result :: high value

Query :: Kindly identify the class of CC1=Nc2ccc(Br)cc2S(=O)(=O)N1 .
Result :: medium value

Query :: Kindly identify the class of COc1cc2c(c(OC)c1OC)-c1ccc(OC)c(=O)cc1[C@@H](N)CC2 .
Result :: low value

Query :: Kindly identify the class of N#Cc1c(N)sc2ccccc12 .
Result :: high value

Query :: Kindly identify the class of O=C(Cc1ccccc1)c1ccccc1 .
Result :: high value

Query :: Kindly identify the class of NC(=O)COc1ccccc1 .
Result :: low value

Query :: Kindly identify the class of NC(=O)c1cccc(OC(=O)CNC(=O)c2ccccc2)c1 .
Result :: medium value

Query :: Kindly identify the class of CCOC(=O)C(=Cc1cccc(Cl)c1)C(=O)OCC .
Result :: high value

Query :: Kindly identify the class of O=c1[nH]c2ccccc2s1 .
Result :: medium value

Query :: Kindly identify the class of COc1cc(OCCOC(=O)c2ccccc2)ccc1C=NO .
Result :: high value

Query :: Kindly identify the class of O=C1C[C@@H]2OCC=C3CN4CC[C@]56c7ccccc7N1[C@H]5[C@H]2[C@H]3C[C@H]46 .
Result :: medium value

Query :: Kindly identify the class of O=C(O)c1ccco1 .
Result :: low value

Query :: Kindly identify the class of Cc1ccncc1 .
Result :: medium value

Query :: Kindly identify the class of Cc1ccc2[nH]c(C(O)C(O)c3nc4cc(C)ccc4[nH]3)nc2c1 (centres undefined) .
Result :: medium value

Query :: Kindly identify the class of NNc1ncnc2c([C@@H]3O[C@H](CO)[C@@H](O)[C@H]3O)n[nH]c12 .
Result :: low value

Query :: Kindly identify the class of O=[N+]([O-])c1ccc(C=Cc2ncccn2)o1 .
Result :: medium value

Query :: Kindly identify the class of CC(=O)C(=Cc1ccc(C)cc1)C(C)=O .
Result :: high value

Query :: Kindly identify the class of CC(=O)Nc1ccc2c(c1)S(=O)(=O)c1ccc(C)cc1C2=O .
Result :: high value

Query :: Kindly identify the class of CCSc1ccccc1 .
Result :: high value

Query :: Kindly identify the class of COc1cc(C(=O)C=CN2CC=CC2)cc(OC)c1OC .
Result :: medium value

Query :: Kindly identify the class of COc1ccccc1C .
Result :: high value

Query :: Kindly identify the class of CC(C)CC(CC(C)C)OC(=O)c1ccc(NC(=O)N(C)C)cc1Cl .
Result :: high value

Query :: Kindly identify the class of O=[N+]([O-])c1ccc(C=Cc2nccn2Cc2ccccc2)o1 .
Result :: medium value

Query :: Kindly identify the class of O=C(Nc1ccc(Cl)c(Cl)c1)C1CCCCC1 .
Result :: high value
